These measurements were taken from patent US7910622B2.

Catalogue of EC50 values
# measured-target: LuxR (Aliivibrio fischeri, UniProt P35327)
# Construct: a Δ-luxI derivative of V. fischeri ES114, in which the native lux operon behaves as the bioluminescent reporter; endogenous in cells; host or cells: V. fischeri ES114 (Δ-luxI)
# Sequence (P35327 whole entry): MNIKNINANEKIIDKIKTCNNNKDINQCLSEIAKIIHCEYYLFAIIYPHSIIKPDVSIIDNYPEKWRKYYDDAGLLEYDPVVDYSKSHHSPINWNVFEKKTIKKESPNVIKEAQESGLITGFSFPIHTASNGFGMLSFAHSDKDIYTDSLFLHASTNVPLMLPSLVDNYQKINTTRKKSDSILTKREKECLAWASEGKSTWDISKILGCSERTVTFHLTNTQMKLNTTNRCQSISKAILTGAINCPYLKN
# test-details: cell-based
# Parameters: species or system Vibrio fischeri
# particulars: LuxR EC50, V. fischeri ES114 (Δ-luxI)

>  <molecule>
CCCC(=O)CC(=O)N[C@H]1CCOC1=O

>  <EC50 [µM]>
3

$$$$
>  <molecule>
O=C(Cc1cccc([N+](=O)[O-])c1)N[C@H]1CCOC1=O [11n]

>  <EC50 [µM]>
0.3

$$$$

====

# measured-target: TraR (Agrobacterium tumefaciens)
# Construct: These strains lack their AHL synthase (I) genes, but retain their native R genes; endogenous in cells; host or cells: A. tumefaciens WCF47 (Δ-traI) with PtraI-lacZ plasmid pCF372
# Sequence (P33905 whole entry): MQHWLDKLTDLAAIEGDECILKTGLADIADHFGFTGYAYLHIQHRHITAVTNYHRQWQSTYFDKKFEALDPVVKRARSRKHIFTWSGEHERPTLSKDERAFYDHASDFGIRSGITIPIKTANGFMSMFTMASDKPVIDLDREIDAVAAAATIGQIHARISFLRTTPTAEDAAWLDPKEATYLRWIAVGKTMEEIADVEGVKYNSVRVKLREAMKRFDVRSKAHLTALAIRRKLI
# test-details: cell-based
pIC50: −log10 of the molar value.
Catalogue of pIC50 values

>  <compound>
CCCCCCCCCC(=O)NC1CCOC1=O (stereo not shown) [A4, C10 AHL]

>  <pIC50>
5.98

$$$$
>  <compound>
O=C(Cc1ccc(Br)cc1)N[C@H]1CCOC1=O [A17, 4-bromo-phenylacetanoyl HL, reference compound]

>  <pIC50>
5.33

$$$$
>  <compound>
CCCCCCC(=O)NC1CCOC1=O (stereo not shown) [compound 4]

>  <pIC50>
6.16

$$$$
>  <compound>
O=C(Cc1ccc([N+](=O)[O-])cc1)NC1CCOC1=O (stereo not shown) [B16, 4-nitro PHL]

>  <pIC50>
5.65

$$$$

====

Catalogue of Activation (%) values
# measured-target: LuxR (Aliivibrio fischeri, UniProt P35327)
# Construct: a Δ-luxI derivative of V. fischeri ES114, in which the native lux operon behaves as the bioluminescent reporter; endogenous in cells; host or cells: V. fischeri ES114 (Δ-luxI)
# test-details: cell-based
# Parameters: species or system Vibrio fischeri
# particulars: V. fischeri-LuxR; Library C primary agonism screen
value-type: Activation (%)

>  <molecule>
O=C(Cc1ccc(C(F)(F)F)cc1)N[C@H]1CCOC1=O [C20, 4-trifluoromethyl PHL]

>  <reading-unit>
%

>  <value>
3

$$$$
>  <molecule>
CCOc1ccc(CC(=O)N[C@H]2CCOC2=O)cc1 [C25]

>  <reading-unit>
%

>  <value>
2

$$$$
>  <molecule>
COc1ccc(CC(=O)N[C@H]2CCOC2=O)cc1 [C24]

>  <reading-unit>
%

>  <value>
3

$$$$
>  <molecule>
O=C(Cc1ccc(-c2ccccc2)cc1)N[C@H]1CCOC1=O [C18, 4-phenyl PHL]

>  <reading-unit>
%

>  <value>
7

$$$$

====

# measured-target: LasR (Pseudomonas aeruginosa, UniProt P25084)
# Construct: expressed in transfected cells; host or cells: E. coli DH5α (pJN105L pSC11), arabinose-induced
# Sequence (P25084 whole entry): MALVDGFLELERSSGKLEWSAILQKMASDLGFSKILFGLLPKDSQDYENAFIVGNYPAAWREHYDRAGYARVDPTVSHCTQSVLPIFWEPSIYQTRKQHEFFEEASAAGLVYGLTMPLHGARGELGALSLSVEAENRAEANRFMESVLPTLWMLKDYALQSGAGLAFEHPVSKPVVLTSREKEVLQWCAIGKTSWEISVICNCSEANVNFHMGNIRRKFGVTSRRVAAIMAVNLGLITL
# test-details: cell-based
# Assay type: cell-based
# particulars: 5 μM synthetic ligand against 7.5 nM OdDHL; E. coli DH5α (pJN105L pSC11); normalized to OdDHL

>  <molecule>
COc1ccc(CC(=O)N[C@H]2CCOC2=O)cc1

>  <E. coli-LasR Inhibition [%] / %>
16

$$$$
>  <molecule>
CCCCCCCC(=O)N[C@H]1CCOC1=O

>  <E. coli-LasR Inhibition [%] / %>
43

$$$$
>  <molecule>
O=C(Cc1ccccc1[N+](=O)[O-])N[C@H]1CCOC1=O

>  <E. coli-LasR Inhibition [%] / %>
17

$$$$
>  <molecule>
C=CCCC(=O)N[C@H]1CCOC1=O

>  <E. coli-LasR Inhibition [%] / %>
12

$$$$
>  <molecule>
O=C(CC1CCCC1)N[C@H]1CCOC1=O

>  <E. coli-LasR Inhibition [%] / %>
19

$$$$
>  <molecule>
COc1ccccc1C1CCN(c2ccc(C=CC(=O)NC3CCOC3=O)cc2[N+](=O)[O-])CC1 (centres unmarked)

>  <E. coli-LasR Inhibition [%] / %>
34

$$$$
>  <molecule>
CC(C)(C)OC(=O)NCc1ccc(C(=O)N[C@H]2CCOC2=O)cc1

>  <E. coli-LasR Inhibition [%] / %>
12

$$$$
>  <molecule>
CCOC(=O)/C=C/C(=O)N[C@H]1CCOC1=O

>  <E. coli-LasR Inhibition [%] / %>
13

$$$$
>  <molecule>
O=C(Cc1ccc(N=Nc2ccccc2)cc1)NC1CCOC1=O (centres unmarked)

>  <E. coli-LasR Inhibition [%] / %>
13

$$$$
>  <molecule>
CCOc1ccc(CC(=O)N[C@H]2CCOC2=O)cc1

>  <E. coli-LasR Inhibition [%] / %>
15

$$$$
>  <molecule>
O=C(CCC(=O)OC(C(=O)c1ccccc1)c1ccccc1)N[C@H]1CCOC1=O (some centres unmarked)

>  <E. coli-LasR Inhibition [%] / %>
17

$$$$
